Experiment: Minipig pharmacokinetics study (BB-1802), single subcutaneous infusion via insulin pump, plasma LC-MS/MS
Recorded conditions: Gottingen, minipig, plasma, sc, 18 mg/kg
Experimental readout: half-life (h)
The response must be a number in h with no trailing unit.

Exam item: Requested field: half-life. Item: CNC1(c2ccccc2Cl)CCCCC1=O (stereo not shown)
Marked response: 3.12

###

Experiment: Minipig pharmacokinetics study (BB-1802), single subcutaneous infusion via insulin pump, plasma LC-MS/MS
Recorded conditions: Gottingen, minipig, plasma, sc, 8 mg/kg
Experimental readout: half-life (h)
The figure you give is taken to be in h; do not add the unit.

Exam item: Param item = CNC1(c2ccccc2Cl)CCCCC1=O (stereo not shown) [ketamine] ; retrieve measured half-life.
Marked response: 5.76

###

Experiment: Minipig pharmacokinetics study (BB-1802), single subcutaneous infusion via insulin pump, plasma LC-MS/MS
Recorded conditions: male, Gottingen, minipig, plasma, sc, 8 mg/kg, mean Tmax, Phase 2: 8 mg/kg, 1 mg/kg/hr, 8-hour SC infusion, males
Experimental readout: Tmax (h)
Provide the reading as a plain figure in h.

Exam item: Entry CNC1(c2ccccc2Cl)CCCCC1=O (stereo not shown) [ketamine] : reported Tmax = ?
Marked response: 4.5

The reported numbers originate from patent US20200384188A1.
